TESTED_TARGET: Recombinant DHODH from C. albicans (Candida albicans, UniProt Q874I4)
Construct: His-tag; NusA (Nus-tag) fusion of vector pET43.1 (own knowledge of the vector) (N)
Sequence (Q874I4 57-444): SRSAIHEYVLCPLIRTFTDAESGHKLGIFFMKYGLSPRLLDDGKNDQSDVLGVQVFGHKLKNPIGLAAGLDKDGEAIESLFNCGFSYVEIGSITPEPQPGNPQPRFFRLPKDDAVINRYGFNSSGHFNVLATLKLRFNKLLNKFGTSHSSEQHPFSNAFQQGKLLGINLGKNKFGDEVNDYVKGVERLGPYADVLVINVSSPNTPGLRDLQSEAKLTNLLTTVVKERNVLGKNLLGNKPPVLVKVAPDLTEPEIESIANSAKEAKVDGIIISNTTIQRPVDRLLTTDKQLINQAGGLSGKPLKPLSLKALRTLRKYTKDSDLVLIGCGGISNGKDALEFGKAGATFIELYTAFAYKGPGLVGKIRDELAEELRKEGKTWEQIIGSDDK
TEST_DETAILS: DHODH inhibition screen (DCIP reduction, 600 nm), C. albicans enzyme

COMPOUND | TESTED_TARGET | UNIT_STRING | IC50
Cc1c(-c2ccc(-c3ccccc3F)cc2)nc2ccc(F)cc2c1C(=O)O [Brequinar, brequinar] | Recombinant DHODH from C. albicans (Candida albicans, UniProt Q874I4) | µM | 143

* * *

Entries with reported MIC on Aspergillus terreus

CHEMICAL_STRUCTURE | MIC
COc1ccc2nc(SC(C)C)n(-c3ccccc3OC)c(=O)c2c1 | 1 to 10 µg/mL
CCSc1nc2cccc(OC)c2c(=O)n1-c1ccccc1OC | 1 to 10 µg/mL
CCSc1nc2cc(C)ccc2c(=O)n1-c1ccccc1OC | < 1 µg/mL
COc1ccccc1-n1c(SC(C)C)nc2ccc(C)cc2c1=O | < 1 µg/mL
CCSc1nc2ccccc2c(=O)n1-c1ccccc1C(C)C | 1 to 10 µg/mL
CCc1ccccc1-n1c(SC(C)C)nc2ccccc2c1=O | 1 to 10 µg/mL
CC(C)Sc1nc2ccccc2c(=O)n1-c1ccccc1C(C)C | < 1 µg/mL
COc1ccccc1-n1c(SC(C)C)nc2ccccc2c1=O | < 1 µg/mL
CC(C)Sc1nc2ccccc2c(=O)n1-c1ccccc1N(C)C | 1 to 10 µg/mL

* * *

System: Aspergillus fumigatus AF293
Below is a list of entries, each paired with its recorded MIC value.
ENDPOINT: MIC

COMPOUND | TESTED_TARGET | RESULT
COc1ccccc1-n1c(SC(C)C)nc2cccc(OC)c2c1=O [Compound Example 4] | Aspergillus fumigatus AF293 | < 1 µg/mL
CCSc1nc2cccc(C)c2c(=O)n1-c1ccccc1OC [Compound Example 14] | Aspergillus fumigatus AF293 | 1 to 10 µg/mL
CCSc1nc2ccccc2c(=O)n1-c1ccccc1CC [Compound Example 13] | Aspergillus fumigatus AF293 | 1 to 10 µg/mL
CCSc1nc2cc(C)ccc2c(=O)n1-c1ccccc1OC [Compound Example 5] | Aspergillus fumigatus AF293 | 1 to 10 µg/mL
CC(C)Sc1nc2ccccc2c(=O)n1-c1ccccc1C(C)C [Compound Example 8] | Aspergillus fumigatus AF293 | < 1 µg/mL
CCSc1nc2cccc(OC)c2c(=O)n1-c1ccccc1OC [Compound Example 12] | Aspergillus fumigatus AF293 | 1 to 10 µg/mL

* * *

Tested on: Aspergillus terreus AT4
Below is a list of entries, each paired with its recorded MIC value.
ENDPOINT: MIC

CHEMICAL_STRUCTURE | RESULT
CCSc1nc2cc(C)ccc2c(=O)n1-c1ccccc1OC | 1 to 10 µg/mL
CCSc1nc2ccccc2c(=O)n1-c1ccccc1CC | > 10 µg/mL
COc1ccccc1-n1c(SC(C)C)nc2ccccc2c1=O | 1 to 10 µg/mL
CC(C)Sc1nc2ccccc2c(=O)n1-c1ccccc1N(C)C | > 10 µg/mL
COc1ccccc1-n1c(SC(C)C)nc2cccc(C)c2c1=O | > 10 µg/mL
CCc1ccccc1-n1c(SC(C)C)nc2ccccc2c1=O | > 10 µg/mL
COc1ccc2nc(SC(C)C)n(-c3ccccc3OC)c(=O)c2c1 | > 10 µg/mL
CC(C)Sc1nc2ccccc2c(=O)n1-c1ccccc1C(C)C | > 10 µg/mL
COc1ccccc1-n1c(SC(C)C)nc2ccc(N(C)C)cc2c1=O | > 10 µg/mL

* * *

Below is a list of entries, each paired with its recorded MIC value.
System: Aspergillus terreus AT4
TEST_DETAILS: MIC in RPMI medium, A. terreus
Assay type: cell-based
RECORDED_CONDITIONS: 24-48 hrs at 35° C., >80% growth inhibition, read-out: MIC grade, A. terreus
ENDPOINT: MIC

CHEMICAL_STRUCTURE | TESTED_TARGET | ENDPOINT | RESULT
CCSc1nc2cccc(OC)c2c(=O)n1-c1ccccc1OC | Aspergillus terreus AT4 | MIC | 1 to 10 µg/mL
CCSc1nc2ccccc2c(=O)n1-c1ccccc1C(C)C | Aspergillus terreus AT4 | MIC | > 10 µg/mL
COc1ccccc1-n1c(SC(C)C)nc2cc(C)ccc2c1=O | Aspergillus terreus AT4 | MIC | < 1 µg/mL
CCSc1nc2cccc(C)c2c(=O)n1-c1ccccc1OC | Aspergillus terreus AT4 | MIC | > 10 µg/mL
COc1ccccc1-n1c(SC(C)C)nc2cccc(OC)c2c1=O | Aspergillus terreus AT4 | MIC | 1 to 10 µg/mL
COc1ccccc1-n1c(SC(C)C)nc2ccc(C)cc2c1=O | Aspergillus terreus AT4 | MIC | > 10 µg/mL

* * *

Below is a list of entries, each paired with its recorded pIC50 value.
TESTED_TARGET: Recombinant A. fumigatus DHODH (Aspergillus fumigatus, UniProt Q4X169)
Sequence (Q4X169 entry or part of it): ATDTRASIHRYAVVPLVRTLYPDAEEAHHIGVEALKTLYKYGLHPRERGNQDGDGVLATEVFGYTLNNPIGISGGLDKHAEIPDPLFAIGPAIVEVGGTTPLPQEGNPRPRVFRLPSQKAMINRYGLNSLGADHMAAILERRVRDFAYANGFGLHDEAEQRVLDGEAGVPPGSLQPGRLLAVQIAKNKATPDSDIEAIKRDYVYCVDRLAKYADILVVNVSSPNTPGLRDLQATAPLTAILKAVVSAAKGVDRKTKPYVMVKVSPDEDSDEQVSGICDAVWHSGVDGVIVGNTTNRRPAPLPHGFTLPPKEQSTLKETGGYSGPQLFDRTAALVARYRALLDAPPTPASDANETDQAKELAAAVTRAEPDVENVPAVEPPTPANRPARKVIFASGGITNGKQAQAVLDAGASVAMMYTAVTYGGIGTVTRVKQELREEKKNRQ
TEST_DETAILS: DHODH inhibition screen (DCIP reduction, 600 nm), A. fumigatus enzyme
pIC50: −log10 of the molar value.
ENDPOINT: pIC50

CHEMICAL_STRUCTURE | RESULT_NUMBER
CC(C)Sc1nc2ccccc2c(=O)n1-c1ccccc1N(C)C | 4.67
CC(C)Sc1nc2ccccc2c(=O)n1-c1ccccc1C(C)C | 4.91
CCSc1nc2cc(C)ccc2c(=O)n1-c1ccccc1OC | 5.27
CCSc1nc2ccccc2c(=O)n1-c1ccccc1CC | 4.44
CCc1ccccc1-n1c(SC(C)C)nc2ccccc2c1=O | 4.75
CCSc1nc2cccc(OC)c2c(=O)n1-c1ccccc1OC | 4.57
COc1ccccc1-n1c(SC(C)C)nc2cccc(OC)c2c1=O | 5.31
COc1ccccc1-n1c(SC(C)C)nc2ccc(N(C)C)cc2c1=O | 5.00
CCSc1nc2ccccc2c(=O)n1-c1ccccc1C(C)C | 4.34
COc1ccc2nc(SC(C)C)n(-c3ccccc3OC)c(=O)c2c1 | 4.71
COc1ccccc1-n1c(SC(C)C)nc2ccccc2c1=O | 4.94
CCSc1nc2cccc(C)c2c(=O)n1-c1ccccc1OC | 4.36

* * *

Entries with reported MIC on A. fumigatus 210

CHEMICAL_STRUCTURE | MIC
CCSc1nc2cccc(C)c2c(=O)n1-c1ccccc1OC | < 1 mg/L
COc1ccccc1-n1c(SC(C)C)nc2cccc(OC)c2c1=O | < 1 mg/L
COc1ccccc1-n1c(SC(C)C)nc2cc(C)ccc2c1=O | < 1 mg/L
CCSc1nc2cccc(OC)c2c(=O)n1-c1ccccc1OC | < 1 mg/L
CC(C)Sc1nc2ccccc2c(=O)n1-c1ccccc1C(C)C | < 1 mg/L
COc1ccccc1-n1c(SC(C)C)nc2cccc(C)c2c1=O | < 1 mg/L
CCSc1nc2ccccc2c(=O)n1-c1ccccc1C(C)C | < 1 mg/L
CC(C)Sc1nc2ccccc2c(=O)n1-c1ccccc1N(C)C | 1 to 10 mg/L
COc1ccccc1-n1c(SC(C)C)nc2ccc(N(C)C)cc2c1=O | 1 to 10 mg/L
CCSc1nc2ccccc2c(=O)n1-c1ccccc1CC | 1 to 10 mg/L
CCc1ccccc1-n1c(SC(C)C)nc2ccccc2c1=O | < 1 mg/L
COc1ccccc1-n1c(SC(C)C)nc2ccc(C)cc2c1=O | < 1 mg/L
CCSc1nc2cc(C)ccc2c(=O)n1-c1ccccc1OC | < 1 mg/L
COc1ccc2nc(SC(C)C)n(-c3ccccc3OC)c(=O)c2c1 | 1 to 10 mg/L
COc1ccccc1-n1c(SC(C)C)nc2ccccc2c1=O | < 1 mg/L

* * *

TESTED_TARGET: Recombinant DHODH from human (Homo sapiens)
Construct: His-tag; NusA (Nus-tag) fusion of vector pET43.1 (own knowledge of the vector) (N)
Sequence (Q02127 31-395 limits assumed): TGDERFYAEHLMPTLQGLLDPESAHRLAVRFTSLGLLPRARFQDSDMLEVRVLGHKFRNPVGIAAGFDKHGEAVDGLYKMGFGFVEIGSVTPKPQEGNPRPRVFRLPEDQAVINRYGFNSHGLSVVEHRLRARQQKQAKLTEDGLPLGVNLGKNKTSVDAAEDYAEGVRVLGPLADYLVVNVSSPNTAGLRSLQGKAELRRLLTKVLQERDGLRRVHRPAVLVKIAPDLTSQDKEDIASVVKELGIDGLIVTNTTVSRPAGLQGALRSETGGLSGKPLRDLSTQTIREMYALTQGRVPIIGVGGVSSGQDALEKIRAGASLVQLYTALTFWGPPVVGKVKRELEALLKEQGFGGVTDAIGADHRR
TEST_DETAILS: DHODH inhibition screen (DCIP reduction, 600 nm), human enzyme
RECORDED_CONDITIONS: Table 3, read-out: IC50 values for Compound Examples 1 to 15 identified from screens, Human
Mark Condition met only when IC50 stays strictly below 50 µM. Values equal to the cut-off are Condition not met.

CHEMICAL_STRUCTURE | CAT
COc1ccccc1-n1c(SC(C)C)nc2ccc(N(C)C)cc2c1=O | Condition met
CCSc1nc2ccccc2c(=O)n1-c1ccccc1CC | Condition not met
CCSc1nc2cccc(C)c2c(=O)n1-c1ccccc1OC | Condition met
CCSc1nc2ccccc2c(=O)n1-c1ccccc1C(C)C | Condition met
COc1ccccc1-n1c(SC(C)C)nc2cccc(OC)c2c1=O | Condition not met
CCSc1nc2cc(C)ccc2c(=O)n1-c1ccccc1OC | Condition met
CC(C)Sc1nc2ccccc2c(=O)n1-c1ccccc1N(C)C | Condition not met
CCSc1nc2cccc(OC)c2c(=O)n1-c1ccccc1OC | Condition not met
CC(C)Sc1nc2ccccc2c(=O)n1-c1ccccc1C(C)C | Condition not met
CCc1ccccc1-n1c(SC(C)C)nc2ccccc2c1=O | Condition not met
